Target: C-C chemokine receptor type 5 (Homo sapiens, UniProt P51681)
Sequence (P51681 whole entry): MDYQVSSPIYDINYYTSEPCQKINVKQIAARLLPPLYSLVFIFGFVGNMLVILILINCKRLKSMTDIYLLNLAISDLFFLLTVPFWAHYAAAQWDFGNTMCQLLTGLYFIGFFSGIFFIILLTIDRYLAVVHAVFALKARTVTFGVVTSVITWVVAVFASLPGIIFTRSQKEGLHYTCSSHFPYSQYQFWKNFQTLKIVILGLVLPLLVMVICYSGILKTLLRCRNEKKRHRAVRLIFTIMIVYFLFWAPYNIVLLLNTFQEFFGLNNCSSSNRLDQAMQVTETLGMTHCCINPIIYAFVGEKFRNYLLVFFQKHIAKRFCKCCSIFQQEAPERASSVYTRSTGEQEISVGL
Assay: Antagonist activity at human CCR5 expressed in CHO cells assessed as inhibition of MIP-1alpha-induced calcium mobilization
propertyName: IC50 (nM)
One number for each entry, in nM.

Please review the entries below; each comes with its answer.
CCCCN1C(=O)[C@@H]([C@H](O)C2CCCCC2)NC(=O)C12CCN(Cc1ccc(Oc3ccc(C(=O)NC)cc3)cc1)CC2.Cl 38
CCCCN1C(=O)[C@@H]([C@H](O)C2CCCCC2)NC(=O)C12CCN(Cc1ccc(Oc3ccc(C(N)=O)cc3)cc1)CC2.Cl 39
CCCCN1C(=O)[C@@H]([C@H](O)C2CCCCC2)NC(=O)C12CCN(Cc1ccc(Oc3ccc(OC)cc3)cc1)CC2 91

Provide IC50 values for the following items, in order.
1. CCCCN1C(=O)[C@@H]([C@H](O)C2CCCCC2)NC(=O)C12CCN(Cc1ccc(Oc3ccc(O)cc3)cc1)CC2.Cl
2. CCCCCN1C(=O)[C@@H]([C@H](O)C2CCCCC2)NC(=O)C12CCN(Cc1ccc(Oc3ccc(C(=O)NC)cc3)cc1)CC2
3. CCCCCCCN1C(=O)[C@@H]([C@H](O)C2CCCCC2)NC(=O)C12CCN(Cc1ccc(Oc3ccc(C(=O)NC)cc3)cc1)CC2
4. CCCCN1C(=O)[C@@H]([C@H](O)C2CCC2)NC(=O)C12CCN(Cc1ccc(Oc3ccc(C(=O)O)cc3)cc1)CC2.Cl

1. 68
2. 68
3. 190
4. 25

====

Molecular target: C-C chemokine receptor type 5 (Homo sapiens, UniProt P51681)
Experiment: Antagonist activity at human CCR5 expressed in CHO cells assessed as inhibition of MIP-1alpha-induced calcium mobilization
propertyName: IC50 (nM)
Give bare numbers, in nM.

compound	propertyName	recordedMeasurement
CN1C(=O)[C@@H]([C@H](O)C2CCCCC2)NC(=O)C12CCN(Cc1ccc(Oc3ccc(C(=O)O)cc3)cc1)CC2	IC50	50
CNC(=O)c1ccc(Oc2ccc(CN3CCC4(CC3)C(=O)N[C@H]([C@H](O)C3CCCCC3)C(=O)N4CCC(C)O)cc2)cc1 (some centres not stated)	IC50	180
CNC(=O)c1ccc(Oc2ccc(CN3CCC4(CC3)C(=O)N[C@H]([C@H](O)C3CCCCC3)C(=O)N4CCOC)cc2)cc1	IC50	33
CCCCN1C(=O)[C@@H]([C@H](O)C2CCCC2)NC(=O)C12CCN(Cc1ccc(Oc3ccc(C(=O)O)cc3)cc1)CC2.Cl	IC50	33
CCCCCCN1C(=O)[C@@H]([C@H](O)C2CCCCC2)NC(=O)C12CCN(Cc1ccc(Oc3ccc(C(=O)NC)cc3)cc1)CC2	IC50	110

Please look at the items below and tell me IC50 for each one, in order.
1. CCN1C(=O)[C@@H]([C@H](O)C2CCCCC2)NC(=O)C12CCN(Cc1ccc(Oc3ccc(C(=O)NC)cc3)cc1)CC2
2. CCCCN1C(=O)[C@@H]([C@H](O)C2CC2)NC(=O)C12CCN(Cc1ccc(Oc3ccc(C(=O)O)cc3)cc1)CC2.Cl

20
81

====

Test: in vivo
Details: dog, po, 3 mg/kg
propertyName: Cmax (ng/mL)
Give bare numbers, in ng/mL.

Cmax for CCCCN1C(=O)[C@@H]([C@H](O)C2CCCCC2)NC(=O)C12CCN(Cc1ccc(Oc3ccc(C(=O)O)cc3)cc1)CC2.Cl [APLAVIROC HYDROCHLORIDE] is 135

====

Biological target: C-C chemokine receptor type 5 (Homo sapiens, UniProt P51681)
Assay: Antagonist activity at human CCR5 expressed in CHO cells assessed as inhibition of MIP-1alpha-induced calcium mobilization
propertyName: pIC50
One number for each entry, as −log10 of the molar value.

CCCN1C(=O)[C@@H]([C@H](O)C2CCCCC2)NC(=O)C12CCN(Cc1ccc(Oc3ccc(C(=O)NC)cc3)cc1)CC2.Cl 7.55
CCCCN1C(=O)[C@@H]([C@H](O)C2CCCCC2)NC(=O)C12CCN(Cc1ccc(Oc3ccc(S(N)(=O)=O)cc3)cc1)CC2 7.32
CCCCN1C(=O)[C@@H]([C@H](O)C2CCCCCC2)NC(=O)C12CCN(Cc1ccc(Oc3ccc(C(=O)O)cc3)cc1)CC2.Cl 7.49

State recorded pIC50 for all listed compounds.
1. CNC(=O)c1ccc(Oc2ccc(CN3CCC4(CC3)C(=O)N[C@H]([C@H](O)C3CCCCC3)C(=O)N4CC(F)(F)F)cc2)cc1
2. CNC(=O)c1ccc(Oc2ccc(CN3CCC4(CC3)C(=O)N[C@H]([C@H](O)C3CCCCC3)C(=O)N4CC(F)(F)C(F)(F)F)cc2)cc1

7.34
6.57

Field pIC50 (C-C chemokine receptor type 5 (Homo sapiens, UniProt P51681)), entry CNC(=O)c1ccc(Oc2ccc(CN3CCC4(CC3)C(=O)N[C@H]([C@H](O)C3CCCCC3)C(=O)N4CCN)cc2)cc1 : 6.12

====

Test: Half life in rat at 3 mg/kg, iv
Type: ADME, organism-based
Set-up: dose 3 mg/kg, route intravenous
Details: in vivo
propertyName: half-life (min)
Give bare numbers, in min.

Solved entries (count: 4):
compound	propertyName	unitName	recordedMeasurement
CCCCN1C(=O)C(C(C)C)NC(=O)C12CCN(Cc1ccc(Oc3ccccc3)cc1)CC2.Cl (stereo unspecified)	half-life	min	13
CCCCN1C(=O)[C@@H]([C@H](O)C(C)C)NC(=O)C12CCN(Cc1ccc(Oc3ccc(C(=O)O)cc3)cc1)CC2.Cl	half-life	min	13.2
CCCN1C(=O)[C@@H]([C@H](O)C2CCCCC2)NC(=O)C12CCN(Cc1ccc(Oc3ccc(C(=O)NC)cc3)cc1)CC2.Cl	half-life	min	43.2
CCCCN1C(=O)[C@@H]([C@H](O)C2CCCCC2)NC(=O)C12CCN(Cc1ccc(Oc3ccc(NS(C)(=O)=O)cc3)cc1)CC2.Cl	half-life	min	137

Provide half-life for all items below, preserving their order.
1. CCCCN1C(=O)[C@@H]([C@H](O)C2CCCCC2)NC(=O)C12CCN(Cc1ccc(Oc3ccc(C(=O)NC)cc3)cc1)CC2.Cl
2. CCCCN1C(=O)C(CC2CCCCC2)NC(=O)C12CCN(Cc1ccc(Oc3ccc(C(=O)NC)cc3)cc1)CC2.Cl (stereo unspecified)

27.6
19.9

====

Test: Clearance in rat at 3 mg/kg, iv
Assay type: ADME, organism-based
Set-up: dose 3 mg/kg, route intravenous
Conditions: in vivo
propertyName: clearance
Answer with the figure and its unit, nothing else.

Completed entries (count: 2):
compound	recordedMeasurement
CCCCN1C(=O)[C@@H]([C@H](O)C(C)C)NC(=O)C12CCN(Cc1ccc(Oc3ccc(C(=O)O)cc3)cc1)CC2.Cl	21.2 mL/min/kg
CCCCN1C(=O)[C@@H]([C@H](O)C2CCCCC2)NC(=O)C12CCN(Cc1ccc(Oc3ccc(C(=O)NC)cc3)cc1)CC2.Cl	12.8 mL/min/kg

Batch of 3 compounds: report clearance for each.
1. CCCCN1C(=O)[C@@H]([C@H](O)C2CCCCC2)NC(=O)C12CCN(Cc1ccc(Oc3ccc(NS(C)(=O)=O)cc3)cc1)CC2.Cl
2. CCCN1C(=O)[C@@H]([C@H](O)C2CCCCC2)NC(=O)C12CCN(Cc1ccc(Oc3ccc(C(=O)NC)cc3)cc1)CC2.Cl
3. CCCCN1C(=O)C(CC2CCCCC2)NC(=O)C12CCN(Cc1ccc(Oc3ccc(C(=O)NC)cc3)cc1)CC2.Cl (stereo not given)

25 mL/min/kg
35.9 mL/min/kg
113 mL/min/kg

====

System: Rattus norvegicus
Assay: Dose normalized AUC in rat at 10 mg/kg, po
Format: ADME, organism-based
Design: dose 10 mg/kg, route oral
Conditions: in vivo
Sorting guide: entries reporting AUC/dose beneath 100 ng·h/mL go in the class 1 pile, the rest go in the class 0 pile.

compound	cat
CCCCN1C(=O)[C@@H]([C@H](O)C2CCCCC2)NC(=O)C12CCN(Cc1ccc(Oc3ccc(C(=O)NC)cc3)cc1)CC2.Cl	class 0
CCCCN1C(=O)C(C(C)C)NC(=O)C12CCN(Cc1ccc(Oc3ccccc3)cc1)CC2.Cl (stereo not given)	class 1
CCCCN1C(=O)[C@@H]([C@H](O)C2CCCCC2)NC(=O)C12CCN(Cc1ccc(Oc3ccc(NS(C)(=O)=O)cc3)cc1)CC2.Cl	class 0
CCCCN1C(=O)C(CC2CCCCC2)NC(=O)C12CCN(Cc1ccc(Oc3ccc(C(=O)NC)cc3)cc1)CC2.Cl (stereo not given)	class 1

Alright, here's another compound for you.
Quick check: AUC/dose of CCCN1C(=O)[C@@H]([C@H](O)C2CCCCC2)NC(=O)C12CCN(Cc1ccc(Oc3ccc(C(=O)NC)cc3)cc1)CC2.Cl under 100 ng·h/mL?
class 0

====

Test system: Rattus norvegicus
Experiment: Dose normalized Cmax in rat at 10 mg/kg, po
Format: ADME, organism-based
Parameters: dose 10 mg/kg, route oral
Conditions: in vivo
Exercise: state measured Cmax/dose for each of the compounds provided.
Answers are plain numbers, in ng/mL.

The examples below pair each entry with its known result.
compound	propertyName	unitName	recordedMeasurement
CCCCN1C(=O)C(CC2CCCCC2)NC(=O)C12CCN(Cc1ccc(Oc3ccc(C(=O)NC)cc3)cc1)CC2.Cl (stereo not given)	Cmax/dose	ng/mL	5.6
CCCN1C(=O)[C@@H]([C@H](O)C2CCCCC2)NC(=O)C12CCN(Cc1ccc(Oc3ccc(C(=O)NC)cc3)cc1)CC2.Cl	Cmax/dose	ng/mL	133
CCCCN1C(=O)[C@@H]([C@H](O)C2CCCCC2)NC(=O)C12CCN(Cc1ccc(Oc3ccc(C(=O)NC)cc3)cc1)CC2.Cl	Cmax/dose	ng/mL	333

Look up Cmax/dose for the entries below, preserving their order.
1. CCCCN1C(=O)[C@@H]([C@H](O)C2CCCCC2)NC(=O)C12CCN(Cc1ccc(Oc3ccc(NS(C)(=O)=O)cc3)cc1)CC2.Cl
2. CCCCN1C(=O)C(C(C)C)NC(=O)C12CCN(Cc1ccc(Oc3ccccc3)cc1)CC2.Cl (stereo not given)

[50, 33.3]
